READOUT: melting point

compound="COc1ccc(C2(C)CCCSC(N)=N2)cc1 (stereo not drawn)" readout="melting point" meas_value="125 to 126 °C"

GET /value?item= CC1(c2cccc(OCCCc3ccc(Cl)cc3)c2)CCSC(N)=N1 (stereo not drawn) &field=melting point returns 106 to 108 °C

# compound COCc1cc(NC(=O)c2ccc(Cl)cn2)cc(C2(C)CCSC(N)=N2)c1.Cl (stereo not drawn) ; its melting point = 181.5 °C

Value of melting point reported for the compound COc1ccc(C(=O)NCc2cccc(C3(C)CCSC(N)=N3)c2)cc1.Cl (stereo not drawn) is 132 to 134 °C

response.value for CC1(c2cccc(NC(=O)c3ccc(C(F)(F)F)cn3)c2)CCSC(N)=N1.Cl (stereo not drawn) (field: melting point) = 268 to 288 °C

# compound CC1(c2cc(F)cc(NC(=O)c3cnccn3)c2)CCSC(N)=N1 (stereo not drawn) ; its melting point = 222 to 224 °C

melting point reported for this compound CC1(c2cc(Br)cc(NC(=O)c3cc4ccccc4s3)c2)CCSC(N)=N1.Cl (stereo not drawn) : 206 to 210 °C

Input CC1(c2cccc(CCC(=O)Nc3ccc(Cl)cn3)c2)CCSC(N)=N1.Cl.Cl (stereo not drawn) . Output melting point: 199 to 203 °C

What the record says about CC1(c2cccc(/C=C/C(=O)Nc3ccccc3)c2)CCSC(N)=N1 (stereo not drawn) : melting point is 134 to 140 °C

* * *

Target: recombinant human BACE-1 protein (Homo sapiens (Human), UniProt P56817)
Sequence (P56817 46-501): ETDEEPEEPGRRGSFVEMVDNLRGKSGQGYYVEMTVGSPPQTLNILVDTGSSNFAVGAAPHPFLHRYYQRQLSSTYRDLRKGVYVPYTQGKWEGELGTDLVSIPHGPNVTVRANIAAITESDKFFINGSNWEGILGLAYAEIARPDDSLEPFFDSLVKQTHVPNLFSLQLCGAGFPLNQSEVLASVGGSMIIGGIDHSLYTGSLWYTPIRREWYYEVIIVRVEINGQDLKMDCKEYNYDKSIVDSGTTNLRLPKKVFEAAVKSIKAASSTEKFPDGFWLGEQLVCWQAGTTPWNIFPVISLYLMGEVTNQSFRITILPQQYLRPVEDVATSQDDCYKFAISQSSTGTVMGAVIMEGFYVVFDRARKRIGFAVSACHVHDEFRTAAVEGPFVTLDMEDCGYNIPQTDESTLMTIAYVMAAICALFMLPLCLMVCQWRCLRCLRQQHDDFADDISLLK
Assay: Measurement of Inhibition of β-Secretase Activity
Type: biochemical
pIC50: −log10 of the molar value.
READOUT: pIC50

Below are worked cases with known answers.
compound="CC1(c2cccc(NC(=O)c3nc4ccccc4s3)c2)CCSC(N)=N1 (stereo not drawn) [Compound 1108]" readout=pIC50 meas_value="> 4.00"
compound="Cc1cnc(C(=O)Nc2cccc(C3(C)CCSC(N)=N3)c2)cn1 (stereo not drawn) [Compound 444]" readout=pIC50 meas_value="> 4.00"

Now let's try a different one.
Reported pIC50 for CC1(c2cccc(COC(=O)Cc3ccccc3)c2)CCSC(N)=N1 (stereo not drawn) [Compound 1140] was > 4.00

* * *

Reported melting point is given for each of the following compounds.

compound="CC1(c2cccc(OCCOc3ccccc3)c2)CCSC(N)=N1.Cl (stereo not drawn) [Compound 57]" readout="melting point" meas_value="197 to 198 °C"
compound="Cl.NC1=NC(c2cccc(NC(=O)c3ccc(Cl)cn3)c2)CCS1 (stereo not drawn) [Compound 740]" readout="melting point" meas_value="250 °C (dec.)"
compound="CC1(c2cccc(/C=C/C(=O)Nc3ccc(Cl)cn3)c2)CCSC(N)=N1.Cl.Cl (stereo not drawn) [Compound 504]" readout="melting point" meas_value="209 to 219 °C"
compound="CC1(c2cc(NC(=O)c3ccc(C(F)(F)F)cn3)cc(C(F)(F)F)c2)CCSC(N)=N1 (stereo not drawn) [Compound 897]" readout="melting point" meas_value="212 to 214 °C"
compound="CC1(c2ccc(OCCc3ccc(O)cc3)cc2)CCSC(N)=N1 (stereo not drawn) [Compound 881]" readout="melting point" meas_value="141 to 144 °C"

Now for another entry.
So for COc1ccccc1C1(C)CCSC(N)=N1 (stereo not drawn) [Compound 680] , the logged melting point turned out to be 159 to 160 °C

* * *

# melting point per record follows

melting point measured on COCc1ccc(C(=O)Nc2cccc(C3(C)CCSC(N)=N3)c2)nc1 (stereo not drawn) = 159 to 163 °C

Field melting point (entry CC1(c2cc(NC(=O)c3ccc(C(F)(F)F)cn3)ccc2F)CCSC(N)=N1 (stereo not drawn) ) reads 211 to 213 °C

Reported melting point for CC1(c2cc(Br)cc(NC(=O)c3ccc(Cl)cn3)c2)CCSC(N)=N1.Cl (stereo not drawn) was 246 to 248 °C

The measured melting point associated with CC1(c2cc(Br)cc(NC(=O)c3nc4ccccc4s3)c2)CCSC(N)=N1.Cl (stereo not drawn) reads 186 to 187 °C

response.value for CCCC1(c2ccc(OC)cc2)CCSC(N)=N1 (stereo not drawn) (field: melting point) = 117 to 118 °C

Entry CC1(c2cccc(CNC(=O)c3ccccc3)c2)CCSC(N)=N1.Cl (stereo not drawn) ; melting point = 143 to 145 °C

The measured melting point associated with COc1cccc(C2(C)CCSC(N)=N2)c1 (stereo not drawn) reads 82 to 83 °C

melting point reported for this compound COc1ccc(C2(C)CCSC(=N)N2C)cc1.Cl (stereo not drawn) : 221 to 224 °C

What the record says about CC1(c2cccc(C(=O)Nc3ccc(Cl)cn3)c2)CCSC(N)=N1.Cl.Cl (stereo not drawn) : melting point is 191 to 193 °C

* * *

A collection of compounds and their measured melting point

Known results for compounds:
compound="CC1(c2cccc(/C(Cl)=C/C(=O)Nc3ccc(Cl)cn3)c2)CCSC(N)=N1 (stereo not drawn)" meas_value="182 to 186 °C (dec.)"
compound="Cc1cc(C(=O)Nc2cccc(C3(C)CCSC(N)=N3)c2)n(C)n1 (stereo not drawn)" meas_value="128 to 131 °C"
compound="CC1(c2ccc3ccccc3c2)CSC(N)=N1.Cl (stereo not drawn)" meas_value="264 to 265 °C"
compound="CC(=O)Nc1ccc(C2(C)CCSC(N)=N2)cc1 (stereo not drawn)" meas_value="192 to 193 °C"
compound="CC1(c2cccc(/C=N/OCc3cccnc3)c2)CCSC(N)=N1 (stereo not drawn)" meas_value="152 to 153 °C"

Pending compound:
Entry CC1(c2csc(C(=O)Nc3ccccc3)c2)CCSC(N)=N1 (stereo not drawn) — recorded melting point = 196 to 200 °C

* * *

Target: recombinant human BACE-1 protein (Homo sapiens (Human))
Test: Measurement of Inhibition of β-Secretase Activity
Format: biochemical
Details: recombinant human BACE-1 protein, 3 h at 30° C., pH5.0; read-out: IC50 value
pIC50: −log10 of the molar value.
// thresholds for pIC50 classes: low value (below 6), medium value (6 to below 7), high value (7 or more)

Which band does Cl.NC1=NC(c2cccc(NC(=O)c3ccc(Cl)cn3)c2)CCS1 (stereo not shown) fall in?
medium value

In plain terms, what class is CC1(c2ccc(F)c(NC(=O)c3ccc4ccccc4n3)c2)CCSC(N)=N1 (stereo not shown) ?
low value

* * *

READOUT: melting point

These recorded examples may help you get a feel for the data.
compound="CC1(c2ccc(F)c(C(=O)Nc3cc(Cl)ccn3)c2)CCSC(N)=N1 (stereo not drawn) [Compound 1068]" readout="melting point" meas_value="132 to 134 °C"
compound="COc1ccc(C2(C)CCCN=C(N)S2)cc1.Cl (stereo not drawn)" readout="melting point" meas_value="130 to 131 °C"
compound="CC1(c2cc(NC(=O)c3ccc(Cl)cn3)cc(C(F)(F)F)c2)CCSC(N)=N1 (stereo not drawn) [Compound 964]" readout="melting point" meas_value="185 to 187 °C"
compound="CC1(c2cccc(NC(=O)c3ccc(Cl)cc3Cl)c2)CCSC(N)=N1 (stereo not drawn) [Compound 625]" readout="melting point" meas_value="107 to 109 °C"
compound="CC1(c2cccc(Oc3ccccc3)c2)CCSC(N)=N1 (stereo not drawn) [Compound 1139]" readout="melting point" meas_value="140 to 141 °C"

Short answer for CC1(c2cccc(/C=N/OCc3ccccn3)c2)CCSC(N)=N1 (stereo not drawn) [Compound 1193] : melting point was 182 to 183 °C

Reported melting point ( CC1(c2cccc(OCCCc3ccccc3)c2)CCSC(N)=N1 (stereo not drawn) [Compound 1010] ) = 90 to 91 °C

What the record says about CC1(c2cccc(NC(=O)c3ncc(Cl)cc3N)c2)CCSC(N)=N1 (stereo not drawn) [Compound 743] : melting point is 148 to 150 °C

CN(C)C(=O)c1ccc(C2(C)CCSC(N)=N2)cc1 (stereo not drawn) [Compound 644] yielded melting point of 201 to 203 °C

* * *

READOUT: melting point

molecule="CC1(c2ccc3ccccc3c2)CCNC(N)=N1.O=S(=O)(O)O (stereo not shown)" readout="melting point" meas_value="> 300 °C"

Entry CC1(c2cccc3c2CC(=O)N3)CCSC(N)=N1.Cl (stereo not shown) , melting point reported as 272 to 285 °C (dec.)

So for CC1(c2cccc(NC(=O)c3ncc(Cl)cc3O)c2)CCSC(N)=N1 (stereo not shown) , the logged melting point turned out to be 157 to 162 °C

melting point for Cc1cc(C(=O)Nc2cc(Br)cc(C3(C)CCSC(N)=N3)c2)c(C)o1.Cl (stereo not shown) is 254 to 256 °C

melting point in this record for CNC(=O)CNC1=NC(C)(c2ccc3ccccc3c2)CCS1 (stereo not shown) : 132.1 to 134.4 °C

Just so you know, measured melting point for CC1(c2cc(F)cc(NC(=O)c3ccc(C(F)(F)F)cn3)c2)CCSC(N)=N1 (stereo not shown) came out at 224 to 225 °C

melting point reported for this molecule CC1(c2cccc(COc3ccc(Cl)cn3)c2)CCSC(N)=N1 (stereo not shown) : 166 to 168 °C

Short answer for CC1(c2ccc(F)cc2)CCCSC(N)=N1.Cl (stereo not shown) : melting point was 219 to 222 °C

Measured melting point of CC1(c2ccc(N)cc2)CCSC(N)=N1 (stereo not shown) : 234 to 240 °C

For CC1(c2cccc(/C=N/OCc3ccncc3)c2)CCSC(N)=N1 (stereo not shown) the molecule record lists melting point as 147 to 149 °C
